Source of measurements: paper PMC6307981

protocol-text: Metabolic stability in human liver microsomes
Type: in vitro ADME
test-conditions: human, liver microsomes, pH 7.4
measure-name: half-life at 1 μM
Could you write the number and then its unit?

Which half-life at 1 μM is reported for this compound? CCCCCCCCCc1nc2cc(Cl)ccc2c(=O)n1N 54.4 min
